tested on: MS2 coat protein; assay: apparent KD of MS2 coat protein; higher = weaker reporter binding; conditions: Eterna round: R107; input ligand: arginine 13.2 mM
Category | rule: reported apparent KD of MS2 coat protein within range, see I = under 10 nM, II = from 10 nM up to 20 nM, III = 20 nM and over

MACROMOLECULE_SEQUENCE	LABEL_VALUE
UUAUGAUGUUCCGAUACCAGCCAUGUGGUUCUAACUUAACAUGAGGAUCACCCAUGUACCGGCCCUUGGCAGCGGAUGUGGAUUA [Flamini]	II

Sort UCUUCGUUGGCGUCACAAUUCAUGCAAUGCCGAGGACCGGUACGGCCGCCACUCGGACUAAUACAUGAGGAUCACCCAUGUCGUG [theeternabot_exclusion_MS2_Trp_A_5] into one of the categories.
III

GET /class?item= CGAAUAUAGACGGCCGCCACUCUACAAACAUGAGGAUCACCCAUGUUCACAUAGAGGAAACUCAUGAGGACCGGGUCAUAGGCUU [#20 Same State - Tryptophan B]
III

---

tested on: K4 kissing-loop RNA reporter; assay: apparent KD of K4 kissing-loop reporter; higher = weaker reporter binding; conditions: Eterna round: R107; input ligand: none
We'd kindly ask you to apply these apparent KD of K4 kissing-loop reporter classes: lower level (below 300 nM), middle level (300 nM to below 500 nM), upper level (500 nM or more)

Consider the worked cases shown below.
MACROMOLECULE_SEQUENCE	LABEL_VALUE
CACGAUGAAUUCUCUAGGAGUGAUGUUUUUCGAGGACCGGUACGGCCGCCACUCGGACGACGAGUGUGGUAGCGGGCUGAAGACU [zgullin]	upper level
UAAUAUCCGUCGGCCGCCACUCACUAGUGAUGUUAGAGGAGUGAUGUUCCACGAGUGAUGUUCGAGAGGACCGGGACGGACGAUG [7th]	lower level
UCGCAAAAGUCGGCCGCCACUCCGGGCCCUAUAAAUGGGCGCAGUGAUGUUGCGGCUAGGCCUCUGAGGACCGGGACUUUGAAGA [Esesbior]	lower level
AAAGAGUCACUCGAAGCCAUCGAAGAUGGGCGAGGACCGGUACGGCCGCCACUCGGAGUGAUGUUCCGAAGACUGUAAAAUAAAA [MatMod 11 - Jieux - Exclusion - Tryptophan A]	middle level
AGGCACGAGCAAGGAUAUCGAGUAGAGUGAUGUUCUGCCUGGGUUGGCUCGUAAGAGCCUUCUCAGCGAGAAGGUGCUCGUGCCU [#2 Same State - FMN A Attempt #20 (HarryS)]	upper level

Entry AUACGCGAUAGCGUAUAUAACUUUUCAGAAGGAGCGUGGAAGUACACAGGUAGGUCGCUGAAUAUAGGACUAGUGAUGUUAGUUA [JR_Nu_SSArginiA_Sub025] belongs to which category?
lower level

Lab log: AGACUAUCGUCAAAGACGGUAGUCAAAAGUGAGGAUAUAGUGAUGUUUAGAAGGCACUAAGACUGUAUCGAAUAGAUACGGUCAA [FmnA 1 #K4BetweenAptamer #OpenEnded] — assign apparent KD of K4 kissing-loop reporter category
upper level

// return the class label for AUGGGUUGUUGAAGGAGCGCCGCCAGUGAUGUUGGGAGUUAGAUACCAGUGAUGUUGGGCCGGCAGGUAGGUCGCGGCGAUUUAU [Exclusion Arginine B GF 19]
middle level

---

tested on: MS2 coat protein; assay: apparent KD of MS2 coat protein, switch ON state; designed switch direction (-1 OFF switch, 1 ON switch): -1; higher = weaker reporter binding; conditions: FMN input: 0 or 200 uM; Eterna round: R93 (includes R88 designs)
Returns one of label 1 or label 0; label 1 when apparent KD of MS2 coat protein is >= 30 nM.

> print(dat)
                     macromolecule.sequence  label.value
1  AAAAGGAUAGGAUAUACAUGAGGAUCACCCAUGUUUAUAAAUAAAAGAAAUAAAGAAAGUAGAAGGGUCAAGAA [LROPPY Exclusion 3 - v07_deltaG=3.4]      label 0
2  GUAGUGUGAGGAUAUGGAUAGAAGAAGUGAAAGUAAGAGAACUAGAAGGCACAUGAGGAUCACCCAUGUAUGUG [JR_Exc004_Sub1701]      label 1
3  AAGAAGUAAGGAUAUACAAGAAAGAAAGAAAAGAAAAGAAAACAUGAGGAUCACCCAUGUAGAAGGUACUAGAA [EteRNA is fun!]      label 0
4  ACCUAACAUGAGGAUCACCCAUGUGAGGAUAUAGACGUGAAUUAAACACGUAACAAAACUAGAAGGCACUGGGC [Erbeardi]      label 0
5  AACAGUACAGGAUAUACAUGAGGAUCACCCAUGUGAAAAUUAAGUGGAGUACCACAAGGUAGAAGGGUACUGGA [Mat - Exclusion 3 - Eli mod - D61]      label 0

hey, is apparent KD of MS2 coat protein for this one >= 30 nM? AGUUGGCGAGGAUAUACAUGAGGAUCACCCAUGUGAGAGAAUAAAGUGAGAAAGAAAAGUAGAAGGCGCUCACA [JL Lego Mod 16]
label 1

Quick check, apparent KD of MS2 coat protein >= 30 nM? AGUCUGAGAGGAUAUACAUGGGAAAAAAAAGUAAGAUCCCUACAUGAGGAUCACCCAUGUAGAAGGCUCUGACA [Ex2 Design 143: Sub-opt 7]
label 0

---

system: K4 kissing-loop RNA reporter; assay: apparent KD of K4 kissing-loop reporter; higher = weaker reporter binding; conditions: Eterna round: R107; input ligand: theophylline 20 uM;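 note: bound reporter read as fluorescence of individual clusters on recovered sequencing chips by microscopy, with normalized cluster intensities fitted with a binding model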
PROPERTY_MEASURED: apparent KD of K4 kissing-loop reporter (nM)
Express your answer in nM, writing the number without its unit.

Bench note: what apparent KD of K4 kissing-loop reporter did AAUAAUUUCAGAGGAUAUGCUUUAUUAUGAUUUUUAAAUAAUAAAUGCAGUGAUGUUGCUUAUUAUGCAGAAGGCUGAUUUAUAA [JR_SSFMNB_Sub015] show?
721

Look at this sequence and give its reported apparent KD of K4 kissing-loop reporter. ACACUAUCGUCAUAGACGGUAGUGAAAUCACAGGAUAUAAGUGAUGUUAGAAGGGUGAAAGACUGUAUCGAAUAGAUACAGUCAA [FmnA 3 #K4BetweenAptamer #OpenEnded]
861

Using the record for ACAUAGGAUGGAAGGAGCGCUCGUCAGUCCUGCGAGUGAUGUUCGUGGGUAAAUAUUCGCGAGCAGGUAGGUCGCCAUCUUGAAA [Vedi] , report its apparent KD of K4 kissing-loop reporter.
177

Which apparent KD of K4 kissing-loop reporter reading was recorded for the sequence GGUAGCAUGGCGGCCGCCACUACUGACAGCUGUCUGUUCUGGGUACCAGGGAGUGAUGUUCCCGGUAGGACCGGGCCAUGCUACC ?
112

For the sequence AAGAGGUAGGCGGCCGCCACUUGUUGUGAACACAUACGAGCCAGUGAUGUUGGUAUUGUGGGCGGAAGGACCGGGCCUACCUGAA [Exclusion - Tryptophan B (Freestyle 20)] , what apparent KD of K4 kissing-loop reporter is on record?
328

What apparent KD of K4 kissing-loop reporter value was documented for this sequence, UCCUAGGUUCGUCGGCGAAAGCCCUGCGAAGGAGCGUGCGAAAGUACAGGUAGGUCGCGCAGUGAUGUUGCACCUAGGUAAUAAA [#07 K4 Arginine A Exclusion] ?
892

---

system: MS2 coat protein; assay: apparent KD of MS2 coat protein; designed switch direction (-1 OFF switch, 1 ON switch): -1; higher = weaker reporter binding; settings: Eterna round: R95; input ligand: none
Record 1.0 whenever apparent KD of MS2 coat protein is at 200 nM or higher; record 0.0 when lower.

MACROMOLECULE_SEQUENCE	LABEL_VALUE
CAGUACUGCAAGCUAUGGGACAUGAGGAUCACCCAUGUUCGUCUUAUUGAUCUAGGUACGCUGACGUACCUAGAUCU [JL-sv1-2.20 Brourd mod] (puzzle: Sensor v3, turn-off variant 1)	0.0
UAGAAAUUCAACGAGUGAAACAUGAGGAUCACCCAUGUGGUGGUAAGGAACAAGCUUUUUGCACGUACUUAUAAGAA [JR_SV3TOV1_Sub003] (puzzle: Sensor v3, turn-off variant 1)	1.0
AUAGGGUCAGGAUAUUGCGCAGUGGACAUGAGGAUCACCCAUGUGAACUUCGUACCGGGCCAAGAAGGGACAGAAA [Tiersoaso] (puzzle: Exclusion 5)	0.0

# bool: apparent KD of MS2 coat protein of CUGAGCAGACGGAGAUCCAACAUGAGGAUCACCCAUGUCUCAUAAGCUUUUUGCUCAUCUUAUUGUACCUUGGUGCA [Mat - Sensor v3 - turn-off var 1 - JL Mod - D21] (puzzle: Sensor v3, turn-off variant 1) >= 200 nM
1.0

Reported apparent KD of MS2 coat protein at or above 200 nM? CUGGUCCGAGGAUAUAUUUUGUGAAACAUGAGGAUCACCCAUGUAAUAAAAUGGAUAUAAAUAGAAGGCGGACUAG [Mat - Exclusion 5 - JL mod - D41] (puzzle: Exclusion 5)
0.0

Is apparent KD of MS2 coat protein for GGUAGUAUGAGUAGUCCUCAUUGAAGAGAGUGGUAAGAAACAUGAGGAUCACCCAUGUAAGAACAAGCUUUUGCUCA [JR_Sv3TOV2_Sub005] (puzzle: Sensor v3, turn-off variant 2) at or above 200 nM?
1.0

Threshold query (apparent KD of MS2 coat protein >= 200 nM) on CAUGAUCUUCGGAUCAUGUACAUGAGGAUCACCCAUGUGACGAGUUACAUGUUUUACAAGCUUUUUGCUCGUCUUAU [Sensor v3 - Turn-off variant 1 - 14] (puzzle: Sensor v3, turn-off variant 1)
0.0

Decide: is the reported value of apparent KD of MS2 coat protein for CUAGUCCGAGGAUAUAUUAAGUGAAACAUGAGGAUCACCCAUGUUAUUUAAUGGAAAUAAAUAGAAGGCGGACUAG [Mat - Exclusion 5 - JL mod - D56] (puzzle: Exclusion 5) equal to or greater than 200 nM?
0.0

Given the entry GAUUAUGCGAGCUUUAGGGACAUGAGGAUCACCCAUGUUCGUCUUGUUGAUCUAGGUGCACUAACAUACCUAAAUCU [JMF 33] (puzzle: Sensor v3, turn-off variant 1) , answer whether its apparent KD of MS2 coat protein meets or surpasses 200 nM.
0.0

Given the entry AUGAGCAGACGGAGAUCCAACAUGAGGAUCACCCAUGUCUCAAAAGCUUUUUGCUCAUCUUAUCGUACCUUGGUGCU [Mat - Sensor v3 - turn-off var 1 - JL Mod - D13] (puzzle: Sensor v3, turn-off variant 1) , answer whether its apparent KD of MS2 coat protein meets or surpasses 200 nM.
1.0
